Assay: Gel melting temperatures
Assay type: physicochemical
Settings: gel in DMSO:H2O (1:2) at its minimum gelation concentration
assay_readout: T2, temperature at which gel is approximately half melted (°C)

A selection of reference data follows.
- compound: "O=C(CN(Cc1ccccc1)C(=O)c1ccc([N+](=O)[O-])cc1)NC1CCCCC1"
  unit_abbreviation: "°C"
  experimental_result: 95
- compound: "COc1ccc(CN(CC(=O)NC2CCCCC2)C(=O)c2ccc(Br)cc2)cc1"
  unit_abbreviation: "°C"
  experimental_result: 110
- compound: "CCOC(=O)CNC(=O)CN(Cc1ccc(OC)cc1)C(=O)c1ccc(Br)cc1"
  unit_abbreviation: "°C"
  experimental_result: 75
- compound: "C#CCCC(=O)N(CC(=O)NC1CCCCC1)Cc1ccccc1"
  unit_abbreviation: "°C"
  experimental_result: 100

I = O=C(CN(Cc1ccccc1)C(=O)c1ccc(Br)cc1)NC1CCCCC1
II = CCOC(=O)CNC(=O)CN(Cc1ccc(OC)cc1)C(=O)c1ccccc1
III = CCOC(=O)CNC(=O)CN(C(=O)c1ccc(Br)cc1)C1C(OC)OC2COC(c3ccccc3)OC2C1O (stereo not shown)
Would you mind ranking these compounds by ascending T2, temperature at which gel is approximately half melted? Please reply with the labels ordered as requested. Many thanks.
II, I, III
(II: 52 °C, I: 80 °C, III: 118 °C)

----------
Assay: Gelation test in solvents at room temperature
Format: physicochemical
Design: key: I, insoluble; P, precipitating; S, soluble at ~20 mg/mL; G, gel at room temperature; number is minimum gelation concentration
Conditions: DMSO:H2O (1:1), room temperature
assay_readout: Gelation test result

- compound: "COc1ccc(CN(CC(=O)NC2CCCCC2)C(=O)c2ccc(Br)cc2)cc1"
  Gelation test result: "G"
- compound: "COC1OC2COC(c3ccccc3)OC2C(O)C1N(CC(=O)NC1CCCCC1)C(=O)c1ccccc1 (centres unmarked)"
  Gelation test result: "P"
- compound: "C[C@H](c1ccccc1)N(CC(=O)NC1CCCCC1)C(=O)c1ccc(Br)cc1"
  Gelation test result: "G"
- compound: "CCOC(=O)CNC(=O)CN(C(=O)c1ccc(Br)cc1)C1C(OC)OC2COC(c3ccccc3)OC2C1O (centres unmarked)"
  Gelation test result: "G"
- compound: "O=C(CN(Cc1ccccc1)C(=O)c1ccc([N+](=O)[O-])cc1)NC1CCCCC1"
  Gelation test result: "G"
- compound: "CCOC(=O)CNC(=O)CN(Cc1ccc(OC)cc1)C(=O)c1ccccc1"
  Gelation test result: "P"

Please look up its Gelation test result: O=C(CN(Cc1ccccc1)C(=O)c1ccccc1)NC1CCCCC1
P

----------
Experiment: Gelation test in solvents at room temperature
Type: physicochemical
Parameters: key: I, insoluble; P, precipitating; S, soluble at ~20 mg/mL; G, gel at room temperature; number is minimum gelation concentration
Conditions: EtOH:H2O (1:1), room temperature
assay_readout: Gelation test result

# count of solved cases: 4
- compound: "O=C(CN(Cc1ccccc1)C(=O)c1ccccc1)NC1CCCCC1"
  assay_readout: "Gelation test result"
  experimental_result: "P"
- compound: "O=C(CN(Cc1ccccc1)C(=O)c1ccc(Br)cc1)NC1CCCCC1"
  assay_readout: "Gelation test result"
  experimental_result: "G"
- compound: "COC1OC2COC(c3ccccc3)OC2C(O)C1N(CC(=O)NC1CCCCC1)C(=O)c1ccc(Br)cc1 (centres unmarked)"
  assay_readout: "Gelation test result"
  experimental_result: "G"
- compound: "COC1OC2COC(c3ccccc3)OC2C(O)C1N(CC(=O)NC1CCCCC1)C(=O)c1ccccc1 (centres unmarked)"
  assay_readout: "Gelation test result"
  experimental_result: "P"

Continue with the next compound.
If you can, please state the reported Gelation test result value of C[C@H](c1ccccc1)N(CC(=O)NC1CCCCC1)C(=O)c1ccc(Br)cc1 .
P
